# TEST: Solubility of the compound at pH 7.7
# Assay type: physicochemical
# CONDITIONS USED: buffer
ASSAY ENDPOINT: solubility

Look up solubility: "O=C1NC(=O)[C@](CNC(=O)c2cc3cc(C(F)(F)F)ccc3o2)(C2CC2)N1"
16 µg/mL

----------
# TEST: Half life in rat at 1 mg/kg, iv or 10 mg/kg, po
# Assay type: ADME, organism-based
# CONDITIONS USED: in vivo
ASSAY ENDPOINT: half-life (h)
Return type: number; implicit unit h.

SMILES REPR: Cn1ccnc1[C@]1(CNC(=O)c2cc3cc(C(F)(F)F)ccc3o2)NC(=O)NC1=O
MEAS VALUE: 1.9

From here, focus on the item given below.
Look up half-life: "O=C1NC(=O)[C@](CNC(=O)c2cc3cc(C(F)(F)F)ccc3o2)(C2CC2)N1"
3.8

----------
Parameter: half-life. Scope: all listed entries.
# TEST: Half life in cynomolgus monkey at 1 mg/kg, iv or 5 mg/kg, po
# Type: ADME, organism-based, Macaca fascicularis
# CONDITIONS USED: in vivo
Return type: number; implicit unit h.

SMILES REPR: Cn1ccnc1[C@]1(CNC(=O)c2cc3cc(C(F)(F)F)ccc3o2)NC(=O)NC1=O
half-life [h]: 6.5

From here, focus on the item given below.
Look up half-life: "O=C1NC(=O)[C@](CNC(=O)c2cc3cc(C(F)(F)F)ccc3o2)(C2CC2)N1"
12

----------
Parameter: log10 concentration at 8 h. Scope: all listed entries.
# TEST: Plasma concentration in Lewis rat at 10 mg/kg, po bid measured after 8 hrs
# Format: ADME, organism-based
Log scale reminder: concentration at 8 h in nM, then log10 taken.

SMILES REPR: O=C1NC(=O)[C@](CNC(=O)c2cc3cc(Cl)ccc3o2)(c2nccs2)N1
MEAS VALUE: 3.34

SMILES REPR: CCn1ccnc1[C@]1(CNC(=O)c2cc3cc(C(F)(F)F)ccc3o2)NC(=O)NC1=O
MEAS VALUE: 2.46

SMILES REPR: Cn1ccnc1[C@]1(CNC(=O)c2cc3cc(Cl)ccc3o2)NC(=O)NC1=O
MEAS VALUE: 2.41

SMILES REPR: Cc1cnc([C@]2(CNC(=O)c3cc4cc(Cl)ccc4o3)NC(=O)NC2=O)n1C
MEAS VALUE: 2.65

SMILES REPR: Cc1cnc([C@]2(CNC(=O)c3cc4cc(C(F)(F)F)ccc4o3)NC(=O)NC2=O)n1C
MEAS VALUE: 2.68

SMILES REPR: Cn1ccnc1[C@]1(CNC(=O)c2cc3cc(C(F)(F)F)ccc3o2)NC(=O)NC1=O
MEAS VALUE: 2.34

Look up log10 concentration at 8 h: "CCn1ccnc1[C@]1(CNC(=O)c2cc3cc(Cl)ccc3o2)NC(=O)NC1=O"
2.20

----------
Parameter: concentration at 4 h. Scope: all listed entries.
# TEST: Plasma concentration in Lewis rat model of MIA at 30 mg/kg, po bid administered post 3 days MIA induction measured after 4 hrs of last dosage on day 7
# Format: ADME, organism-based
Give the figure together with its unit, number first.

Look up concentration at 4 h: "CCn1ccnc1[C@]1(CNC(=O)c2cc3cc(C(F)(F)F)ccc3o2)NC(=O)NC1=O"
3.6 µM
